- Test system: SNB-78 CNS
- Experiment Notes: NCI tumour cell line growth inhibition, 48 h
Reported Endpoint: log10(TGI) (log10 of the value in µM)
# values: log10(TGI), units µM

// known answers, use as guide
{"Molecule": "CC1=C[C@H]2c3c([nH]c4ccccc34)C(c3c[nH]c4ccccc34)[C@H]2CC1 (some centres not stated)", "log10(TGI)": 1.12}
{"Molecule": "C=C1C(=O)OC2C/C(C)=C/CC/C(C)=C/CCC3(COC(C)=O)OC3CC12 (configuration not stated)", "log10(TGI)": 1.48}
{"Molecule": "CC(C)(C)c1cc(C(O)(C(F)(F)F)C(F)(F)F)c2c(c1)C(C(F)(F)F)(C(F)(F)F)OC(C)(C(C)(C)C)N2 (configuration not stated)", "log10(TGI)": 2.00}

Recorded log10(TGI) (molecule "CCOc1ccc2[nH]c3c(C)c4ccncc4c(C)c3c2c1" ): 0.49

Consider "CN(Cc1cnc2nc(N)nc(N)c2n1)c1ccc(C(=O)N[C@@H](CCC(=O)O)C(=O)O)cc1" . Its measured log10(TGI) is 2.33

log10(TGI) recorded for this molecule, "CCN(CC)CCCNc1ccc2nc(C)n3c4ccc(O)cc4c(=O)c1c23" , is 1.29

* * *

- Tested on: SW-620 colon
- Experiment Notes: NCI tumour cell line growth inhibition, 48 h
TGI values, listed per item

Some solved cases for reference:
{"Compound": "CCNc1cc(-c2cccc(OC(F)(F)F)c2)nc2ccc(N3CCCC3)cc12", "Result": "3.47 µM"}
{"Compound": "NCCSSCCN", "Result": "> 100 µM"}
{"Compound": "CC1=CC(=O)CC2(C)CC[C@@H]3C[C@]12OC3(C)C (some centres not stated)", "Result": "> 100 µM"}
{"Compound": "COc1ccccc1C#Cc1ccccc1C#CCCCCO", "Result": "46.4 µM"}
{"Compound": "COc1cc(C2SCCCCCCCCCCSC(c3ccc(O)c(OC)c3)SCCCCCCCCCCS2)ccc1O (configuration not stated)", "Result": "> 100 µM"}
{"Compound": "Nc1[nH]nc(Nc2ccc(Cl)cc2)c1P(=O)(c1ccccc1)c1ccccc1", "Result": "> 100 µM"}

Lab book: TGI of "Brc1ccc(C[P+]2(c3ccccc3)CCCCC2)cc1" noted as > 100 µM

Lookup result for O=C(/C=C/c1ccccc1)C(Br)C(Br)c1ccccc1 (configuration not stated) ; measured TGI: 1.59 µM

GET /value?item= COC12CCC(=O)C=C1c1ccccc1N2C(C)=O (configuration not stated) &field=TGI returns > 100 µM

The recorded TGI for COc1cc(C(C)O)c(S(=O)(=O)CC(C)O)nn1 (configuration not stated) is > 100 µM

Value of TGI reported for the compound "COC(=O)c1ccc(/C=C2\Oc3ccccc3C2=O)cc1" is > 100 µM

CC(=O)c1ccc2c(c1)C1C=CCC1[C@H](c1cc3c(cc1Br)OCO3)N2 (some centres not stated) has a reported TGI of > 29.2 µM

* * *

- System: HT29 colon
- Experiment Notes: NCI tumour cell line growth inhibition, 48 h
Known TGI of a selection of molecules

Some molecules with recorded TGI:
{"Molecule": "COC12CCC(=O)C=C1c1ccccc1N2C(C)=O (configuration not stated)", "Target Under Test": "HT29 colon", "Result": "> 100 µM"}
{"Molecule": "C#C/C=C\\CCCC/C=C\\C#CC#CCCCC#CC#C[C@H](COS(=O)(=O)O)OS(=O)(=O)O", "Target Under Test": "HT29 colon", "Result": "> 100 µM"}
{"Molecule": "CC[C@H](Nc1ncnc2nc[nH]c12)c1nc2cccc(F)c2c(=O)n1-c1ccccc1", "Target Under Test": "HT29 colon", "Result": "> 100 µM"}

The molecule listed as "CCCCCCCCCCCCCCCCNC(=O)C(=O)/C=C(\O)c1ccc(C)cc1" shows TGI equal to > 10 µM

response.value for "O=C(/C=C/c1ccc(-c2ccccc2)cc1)NCc1ccc(C(=O)NCc2ccccc2)cc1" (field: TGI) = > 100 µM

Where do these numbers come from? They come from PubChem BioAssay (NCI).
